# measured-on: Adrenergic receptor alpha-2 (Rattus norvegicus) (UniProt P22086+P19328+P22909)
# assay-remarks: Presynaptic antagonist activity towards alpha-2 adrenergic receptor.
# Assay type: functional
# note: exactly 0.3 is not below, so it is FALSE; use TRUE for potency relative to idazoxan strictly under it

Lookup: Dear colleague, could you confirm whether potency relative to idazoxan of COc1ccc(COC2(C3=NCCN3)COc3ccccc3O2)cc1 (configuration not stated) falls below 0.3? Thanks.
Found: FALSE

Lookup: Also C#CCOC1(C2=NCCN2)COc2ccccc2O1 (configuration not stated) ?
Found: FALSE

Lookup: Now this one: Clc1ccc(COC2(C3=NCCN3)COc3ccccc3O2)cc1 (configuration not stated)
Found: FALSE

Lookup: Then this compound: c1ccc(COC2(C3=NCCN3)COc3ccccc3O2)cc1 (configuration not stated)
Found: FALSE

Lookup: Similarly, c1ccc2c(c1)OCC(C1=NCCN1)(C1CCCC1)O2 (configuration not stated) ?
Found: TRUE

Lookup: # iterate: c1ccc(CCOC2(C3=NCCN3)COc3ccccc3O2)cc1 (configuration not stated)
Found: FALSE

Lookup: Repeat for the following compound: COc1cc2c(cc1OC)OC(OC)(C1=NCCN1)CO2 (configuration not stated)
Found: TRUE

Lookup: Would you kindly repeat that for CC1(C2=NCCN2)COc2ccccc2O1.Cl (configuration not stated) ?
Found: FALSE

Lookup: Entry C1=C(C2(C3=NCCN3)COc3ccccc3O2)CCC1 (configuration not stated) please
Found: TRUE

Lookup: Do the same for CCOC1(C2=NCCN2)COc2ccccc2O1.Cl (configuration not stated) please
Found: FALSE

Lookup: Another: c1ccc(C2(C3=NCCN3)COc3ccccc3O2)cc1 (configuration not stated)
Found: TRUE

Lookup: Now consider COC1(C2=NCCN2)COc2ccccc2O1 (configuration not stated) .
Found: FALSE

Lookup: Try the compound CCCC1(C2=NCCN2)COc2ccccc2O1 (configuration not stated)
Found: FALSE

Lookup: // next record Clc1ccccc1COC1(C2=NCCN2)COc2ccccc2O1 (configuration not stated)
Found: FALSE

Lookup: Now try Cc1cccc(OC2(C3=NCCN3)COc3ccccc3O2)c1 (configuration not stated) .
Found: FALSE

----------
# measured-on: Adrenergic receptor alpha-2 (Rattus norvegicus) (UniProt P22086+P19328+P22909)
# assay-remarks: Alpha-2 adrenergic receptor antagonist activity compared to idazoxan
# Type: functional
endpoint: Relative potency
The reply should be a number, written without any unit.

Completed entries (count: 10):
COC1(C2=NCCN2)COc2ccccc2O1 (configuration not stated) :: 8.1
CC(C)OC1(C2=NCCN2)COc2ccccc2O1 (configuration not stated) :: 1.5
CCOC1(C2=NCCN2)COc2ccccc2O1.Cl (configuration not stated) :: 2.6
C=C(C)C1(C2=NCCN2)COc2ccccc2O1.Cl (configuration not stated) :: 0.5
CCCOC1(C2=NCCN2)COc2ccccc2O1 (configuration not stated) :: 1.4
CC1(C2=NCCN2)COc2ccccc2O1.Cl (configuration not stated) :: 0.3
CCCC1(C2=NCCN2)COc2ccccc2O1 (configuration not stated) :: 2.6
C1=C(C2(C3=NCCN3)COc3ccccc3O2)CC1.Cl (configuration not stated) :: 0.3
CCCCOC1(C2=NCCN2)COc2ccccc2O1 (configuration not stated) :: 0.7
CCC1(C2=NCCN2)COc2ccccc2O1 (configuration not stated) :: 1.6

Lookup: // fetch Adrenergic receptor alpha-2 (Rattus norvegicus) (UniProt P22086+P19328+P22909) Relative potency for c1ccc(COC2(C3=NCCN3)COc3ccccc3O2)cc1 (configuration not stated)
Found: 1.5

Lookup: What do we get for C=CCOC1(C2=NCCN2)COc2ccccc2O1 (configuration not stated) ?
Found: 2

----------
# measured-on: Adrenergic receptor alpha-1 (Rattus norvegicus) (UniProt P15823+P23944+P43140)
# assay-remarks: post-synaptic antagonist activity towards alpha-1 adrenergic receptor was determined. Concentration giving a dose response to phenylephrine (idazoxan=1) was reported.
# Assay type: functional
endpoint: Postsynaptic antagonist
# print the numeric value only

Here's what some known entries look like.
C#CCOC1(C2=NCCN2)COc2ccccc2O1 (stereo not drawn) :: 2.1
C1=C(C2(C3=NCCN3)COc3ccccc3O2)CCCC1 (stereo not drawn) :: 0.75
Clc1ccc(COC2(C3=NCCN3)COc3ccccc3O2)cc1 (stereo not drawn) :: 2.46
CC(C)OC1(C2=NCCN2)COc2ccccc2O1 (stereo not drawn) :: 0.6
C1=C(C2(C3=NCCN3)COc3ccccc3O2)CC1.Cl (stereo not drawn) :: 0.13

Lookup: Give Adrenergic receptor alpha-1 (Rattus norvegicus) (UniProt P15823+P23944+P43140) Postsynaptic antagonist for c1ccc2c(c1)OCC(OC1CCCC1)(C1=NCCN1)O2 (stereo not drawn)
Found: 1

Lookup: Entry CCCOC1(C2=NCCN2)COc2ccccc2O1 (stereo not drawn) please
Found: 1

Lookup: // repeat for CC1Oc2ccccc2OC1C1=NCCN1 (stereo not drawn) and report
Found: 0.023

Lookup: Same read-out for c1ccc(C2(C3=NCCN3)COc3ccccc3O2)cc1 (stereo not drawn) ?
Found: 0.026

Lookup: Can you check C=CC1(C2=NCCN2)COc2ccccc2O1 (stereo not drawn) next?
Found: 0.3

----------
Consider the following compounds and their measured Postsynaptic antagonist readings.
# measured-on: Adrenergic receptor alpha-1 (Rattus norvegicus) (UniProt P15823+P23944+P43140)
# assay-remarks: post-synaptic antagonist activity towards alpha-1 adrenergic receptor was determined. Concentration giving a dose response to phenylephrine (idazoxan=1) was reported.
# Type: functional
The reply should be a number, written without any unit.

OCCCCOC1(C2=NCCN2)COc2ccccc2O1 (stereo not drawn) :: 1

Lookup: Look up Postsynaptic antagonist: c1ccc(OC2(C3=NCCN3)COc3ccccc3O2)cc1 (stereo not drawn)
Found: 1

Lookup: Same question, COC1(C2=NC(C)CN2)COc2ccccc2O1 (stereo not drawn) this time
Found: 1

----------
Reported Relative potency values are given for each entry in this list.
# measured-on: Adrenergic receptor alpha-1 (Rattus norvegicus) (UniProt P15823+P23944+P43140)
# assay-remarks: Alpha-1 adrenergic receptor binding activity relative to idazoxan.
# Type: protein assay
I only need the number, thanks.

Worked examples follow.
CCCCOC1(C2=NCCN2)COc2ccccc2O1 (stereo unspecified) :: 2.4
CCOC1(C2=NCCN2)COc2ccccc2O1.Cl (stereo unspecified) :: 2.6
CC(C)OC1(C2=NCCN2)COc2ccccc2O1 (stereo unspecified) :: 0.5
C=C(C)C1(C2=NCCN2)COc2ccccc2O1.Cl (stereo unspecified) :: 0.1
CCC1(C2=NCCN2)COc2ccccc2O1 (stereo unspecified) :: 1.2

Lookup: Please look up its Relative potency: CC1(C2=NCCN2)COc2ccccc2O1.Cl (stereo unspecified)
Found: 0.1

Lookup: Further, for C=CCOC1(C2=NCCN2)COc2ccccc2O1 (stereo unspecified) ?
Found: 1.7

----------
# measured-on: Adrenergic receptor alpha (Rattus norvegicus) (UniProt P15823+P23944+P43140+P22086+P19328+P22909)
# assay-remarks: Selectivity as ratio […] against alpha-2 receptor to that of alpha-1 receptor.
# Format: protein assay
endpoint: Ratio

CCCCOC1(C2=NCCN2)COc2ccccc2O1 (stereo unspecified) :: 0.7
CCCC1(C2=NCCN2)COc2ccccc2O1 (stereo unspecified) :: 1.5
COc1ccc(COC2(C3=NCCN3)COc3ccccc3O2)cc1 (stereo unspecified) :: 0.13
COCCOC1(C2=NCCN2)COc2ccccc2O1 (stereo unspecified) :: 0.2
CCCCCCCC1(C2=NCCN2)COc2ccccc2O1 (stereo unspecified) :: 0.85

Lookup: # input compound: COC1(C2=NCCN2)COc2ccccc2O1 (stereo unspecified) ; wanted: its Ratio
Found: 2.8

Lookup: What would you report for Clc1ccccc1COC1(C2=NCCN2)COc2ccccc2O1 (stereo unspecified) ?
Found: 0.36

Lookup: Also Clc1ccc(COC2(C3=NCCN3)COc3ccccc3O2)cc1 (stereo unspecified) ?
Found: 0.4

----------
# measured-on: Adrenergic receptor alpha-2 (Rattus norvegicus) (UniProt P22086+P19328+P22909)
# assay-remarks: Presynaptic antagonist activity towards alpha-2 adrenergic receptor.
# Assay type: functional
potency relative to idazoxan of 0.7 or higher: criterion met. Under 0.7: criterion not met.

Some solved cases for reference:
CCCCC1(C2=NCCN2)COc2ccccc2O1 (configuration not stated) :: criterion met
COc1ccc(OC2(C3=NCCN3)COc3ccccc3O2)cc1 (configuration not stated) :: criterion not met
CCC1(C2=NCCN2)COc2ccccc2O1 (configuration not stated) :: criterion met

Lookup: Test whether the compound CCCCCCCC1(C2=NCCN2)COc2ccccc2O1 (configuration not stated) records potency relative to idazoxan of 0.7 or higher.
Found: criterion met

Lookup: // next record c1ccc(OC2(C3=NCCN3)COc3ccccc3O2)cc1 (configuration not stated)
Found: criterion not met

Lookup: Param item: COc1ccccc1COC1(C2=NCCN2)COc2ccccc2O1 (configuration not stated)
Found: criterion met

Lookup: Now consider CC(C)OC1(C2=NCCN2)COc2ccccc2O1 (configuration not stated) .
Found: criterion met

Lookup: Next record, please: CCCOC1(C2=NCCN2)COc2ccccc2O1 (configuration not stated)
Found: criterion met
